# target-under-test: T1, Abp1, P15891
# T1 sequence (P15891 535-592, looked up): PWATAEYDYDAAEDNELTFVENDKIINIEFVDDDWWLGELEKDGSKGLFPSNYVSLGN
# experimental-protocol: SPOT array
# condition: median of control spots 935
result-type: SPOT intensity

1 = RRSKSLPITPKSIFN
2 = KKIRLIFTYPSTVGR
3 = TTAPALPSLPPPPLL
4 = QNTPPLPPKPKSPHL
Please rank these binders by SPOT intensity in descending order. Form field (ranking): labels in requested order.
2, 1, 4, 3
